Reference for the values: PubChem BioAssay (NCI)

# Test system: NCI-H226 lung
# protocol_description: NCI-60 one-dose screen, 48 h (100 = growth as untreated, 0 = no growth, -100 = all killed)
# experimental_setup: 10 µM unless noted
The panel holds about 83,000 compounds, 20% with a hit somewhere; the sample as a whole holds those more often.
Labelling field: enter Y if recorded growth is less than 70%. Enter N if it equals or exceeds that cut-off.

Worked cases, answers included:
> print(dat)
                                   compound  classification
1  CC1=C(C)C(=O)C(Nc2ccc3c(c2)OCO3)=C(Br)C1=O               N
2  Brc1cccc(-c2cc(-c3ccc4c(c3)OC=CO4)[nH]n2)c1               N
3  CN1CCN(c2ccc(Nc3nc(NCCNC(=O)c4ccc(F)cc4)c4sccc4n3)cc2)CC1               N
4  COc1ccc2[nH]cc(-c3nn4cc(-c5ccncc5)nc4s3)c2c1               N
5               Cn1c2nc3ccccc3c-2cc2ccccc21               Y
6  COC(=O)CNC(=O)c1cccc(-c2cc(=O)c3c(OC)c(OC)c(OC)cc3o2)c1               N

// switching to the query compound
[ask] Confirm or reject: growth of "COC(=O)c1cccc(NC2=C(Cl)C(=O)C(C)=C(C)C2=O)c1" lies strictly below 70%
[reply] N
